B1: library; a variant is named by its letters at N, in order (parent)
chain: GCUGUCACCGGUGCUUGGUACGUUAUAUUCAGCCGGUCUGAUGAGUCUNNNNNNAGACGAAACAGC

Variants of: B1
Assay: normalized RNA/DNA level without ligand (relative to sTRSVctl = 100) (log10 (% of sTRSVctl)); HEK293T overexpressing SLC46A1; higher = less ribozyme self-cleavage, higher mRNA level
Settings: without (6R,S)-folinic acid; ligand present: no
# normalized RNA/DNA level without ligand (log10) annotations
Value type: normalized RNA/DNA level without ligand (log10)

1) CAUCUC; 2.11
2) AACCUU; 2.04
3) UUAGUC; 2.03
4) CUAGCC; 2.02
5) AAAGUG; 1.68
6) CACCCU; 2.06
7) UAUUCG; 1.73
8) UCGAUU; 2.02
9) AACUGU; 1.97
10) UUGGUC; 2.05
11) AGCUCC; 2.09
12) UAUUAU; 1.93
13) CAAAAA; 1.96
14) GCAUGU; 1.98
15) GACUUA; 1.98
16) CUGGCC; 2.08
17) CAAACU; 2.01
18) CCCGAU; 2
19) UGGAAA; 1.92
20) GCCACC; 2.04
21) GUGAUA; 1.97
22) GCGUUC; 2.02
